tgt: T1, human Claudin18.2 (human)
T1 construct: also called CLDN18.2
protocol: cell ELISA, Claudin18.2-expressing HEK293T cells
metric: pEC50
Just the number, please; pEC50 means minus log10 of the concentration in mol/L.

- binder: "409D1A7 (antibody, V domains shown, mouse hybridoma mAb) VH: DVQLVESGGGLVQPGGSRKLSCAASGFTFSGFGMHWIRQTPEKGLEWVAYISSGSRPIYYADTVKGRFTISRDNPKNTLFLHMTSLRSEDTAMYFCARFYYGNSFDHWGQGTLVTVSA VL: DIVMTQSPSFLTVTAGEKVTMNCKSSQSLLNSGNQRNYLTWYQQKPGQPPKLLIYWASTRESGVPDRFTGSGSGTDFTLTISSVQAEDLALYYCQNAYSFPLTFGAGTKLELN"
  measured: 8.69
- binder: "234E1F12 (antibody, V domains shown, mouse hybridoma mAb) VH: QAYLQQSGAELVRSGASVKMSCKASGYTFTSHNMHWVKQTPRQGLEWIGYIYPGNGDTNYNQKFKGKATLTADTSSSTAYMQISSLTSEDSAVYFCTRDYYGNSFAYWGQGTLVTVSA VL: DIVMTQSPSSLTEKAGERVSMSCKSSQSLFNSGNQKNYLTWYQQKPGQPPKLLIYWASTRESGVPDRFTGSGSGTDFTLTISSVQAEDLAVYYCQNAYWYPFTFGAGTKLELK"
  measured: 9.24
- binder: "422F4B6 (antibody, V domains shown, mouse hybridoma mAb) VH: DVQLVESGGGLVQPGGSRKLSCAASGFSFSSFGMHWVRQAPEKGLEWVAYISSGSSPIYYADTVKGRFIISRDNPKNTLFLQMTSLRSEDTAMYFCARIYYGNSFAYWGQGTLVTVSA VL: DIVMTQSPSSLTVTAGEKVTMSCKSSQTLLNSGNQKNYLTWYQQKPGQPPKLLIYWASTRESGVPDRFTGSGSGTDFTLTISSVQAEDLAVYYCQNAYSYPLTFGSGTKLELK"
  measured: 8.60

The record that follows has no pEC50 shown yet.
Give recorded pEC50. 267B2C5 (antibody, V domains shown, mouse hybridoma mAb) VH: QVQLKESGPGLVAPSQSLAITCTVSGFSLTTYGVSWVRQPPGKGLEWLGVIWGDGSTHYHSALISRLSIRKDNSKSQVFLKVNSLQTDDTATYYCGKPGRGNAMDYWGQGTSVTVSS VL: DIVMTQSPSSLTVTAGEKVTMSCKSSQSLLNSGNQKNYLTWYQQKPGQSPKLLIYWASTRESGVPDRFTGSGSGTDFTLTISSVQAEDLAVYYCQNDYIYPLTFGGGTTLELK
9.05
